The entries below come with measured Ki values attached.
# target system: α-glucosidase
# assay method text: Kinetic studies of α-glucosidase inhibition (Lineweaver–Burk, secondary replot, Dixon plots)
# cond: secondary replot of Lineweaver–Burk plots, reconfirmed by Dixon plots
readout kind: Ki (nM)

INSERT INTO assay_data (chemical_string, unit_abbreviation, assay_result) VALUES
  ('O=c1oc2ccccc2c(Cl)c1/C=N/NC(=S)Nc1cc(Cl)c(Cl)cc1Cl', 'nM', 1620),
  ('O=c1oc2ccccc2c(Cl)c1/C=N/NC(=S)NCCc1ccccc1', 'nM', 1330),
  ('O=c1oc2ccccc2c(Cl)c1/C=N/NC(=S)Nc1ccc([N+](=O)[O-])cc1', 'nM', 1510);

* * *

# target system: α-glucosidase
# assay method text: In-vitro α-glucosidase inhibition assay (4-nitro phenyl α-D-glucopyranoside substrate)
# cond: triplicate, ± SEM
Group membership follows IC50 per the scheme bin A: < 3 µM; bin B: ≥ 3 µM and < 10 µM; bin C: ≥ 10 µM

INSERT INTO measurements (chemical_string, group) VALUES
  ('O=c1oc2ccccc2c(Cl)c1/C=N/NC(=S)NCc1ccccc1', 'bin C'),
  ('CNC(=S)N/N=C/c1c(Cl)c2ccccc2oc1=O', 'bin C'),
  ('O=c1oc2ccccc2c(Cl)c1/C=N/NC(=S)NC1CCCCC1', 'bin C'),
  ('O=c1oc2ccccc2c(Cl)c1/C=N/NC(=S)Nc1cc(Cl)c(Cl)cc1Cl', 'bin A'),
  ('Cc1cccc(C)c1NC(=S)N/N=C/c1c(Cl)c2ccccc2oc1=O', 'bin C'),
  ('Cc1ccc(NC(=S)N/N=C/c2c(Cl)c3ccccc3oc2=O)cc1', 'bin B'),
  ('COc1cccc(NC(=S)N/N=C/c2c(Cl)c3ccccc3oc2=O)c1', 'bin B'),
  ('O=c1oc2ccccc2c(Cl)c1/C=N/NC(=S)Nc1ccccc1F', 'bin B'),
  ('O=c1oc2ccccc2c(Cl)c1/C=N/NC(=S)Nc1ccc([N+](=O)[O-])cc1', 'bin A'),
  ('O=c1oc2ccccc2c(Cl)c1/C=N/NC(=S)NCCc1ccccc1', 'bin A'),
  ('COc1ccc(NC(=S)N/N=C/c2c(Cl)c3ccccc3oc2=O)cc1', 'bin B'),
  ('O=c1oc2ccccc2c(Cl)c1/C=N/NC(=S)Nc1cccc(Cl)c1Cl', 'bin B');

* * *

# Test system: α-glucosidase
# assay method text: In-vitro α-glucosidase inhibition assay (4-nitro phenyl α-D-glucopyranoside substrate)
# Format: biochemical
# cond: test samples 0.5 mM
Each entry gets 0.0 if its Percent inhibition (0.5 mM) stays under 90%, and 1.0 if its Percent inhibition (0.5 mM) is 90% or above.

INSERT INTO assay_data (compound, group) VALUES
  ('C[C@H]1O[C@H](O[C@H]2[C@H](O)[C@@H](O)[C@@H](O[C@H]3[C@H](O)[C@@H](O)C(O)O[C@@H]3CO)O[C@@H]2CO)[C@H](O)[C@@H](O)[C@@H]1N[C@H]1C=C(CO)[C@@H](O)[C@H](O)[C@H]1O (stereo partly shown) [acarbose, reference compound]', 0.0),
  ('O=c1oc2ccccc2c(Cl)c1/C=N/NC(=S)Nc1ccc([N+](=O)[O-])cc1', 1.0),
  ('O=c1oc2ccccc2c(Cl)c1/C=N/NC(=S)NCCc1ccccc1', 1.0);

* * *

The entries below come with measured Percent inhibition (0.5 mM) values attached.
# System: α-glucosidase
# assay method text: In-vitro α-glucosidase inhibition assay (4-nitro phenyl α-D-glucopyranoside substrate)
# Assay type: biochemical
# cond: test samples 0.5 mM
# Protocol: The most recent investigations were carried out utilizing the techniques we previously discussed. The enzyme and substrate were dissolved in phosphate buffer (pH 6.8) which also served as the reaction buffer for the experiments. […] Changes in absorbance brought on by substrate breakdown were measured at 400 nm for 30 min after each well-received 25 µL of 4-nitro phenyl α-D-glucopyranoside. […]
readout kind: Percent inhibition (0.5 mM) (%)

INSERT INTO measurements (chemical_string, readout_kind, assay_result) VALUES
  ('COc1ccc(NC(=S)N/N=C/c2c(Cl)c3ccccc3oc2=O)cc1', 'Percent inhibition (0.5 mM)', 94.63),
  ('Cc1cccc(C)c1NC(=S)N/N=C/c1c(Cl)c2ccccc2oc1=O', 'Percent inhibition (0.5 mM)', 91.29),
  ('O=c1oc2ccccc2c(Cl)c1/C=N/NC(=S)Nc1ccccc1', 'Percent inhibition (0.5 mM)', 92.45),
  ('COc1cccc(NC(=S)N/N=C/c2c(Cl)c3ccccc3oc2=O)c1', 'Percent inhibition (0.5 mM)', 94.67),
  ('Cc1ccc(NC(=S)N/N=C/c2c(Cl)c3ccccc3oc2=O)cc1', 'Percent inhibition (0.5 mM)', 92.75),
  ('O=c1oc2ccccc2c(Cl)c1/C=N/NC(=S)Nc1cc(Cl)c(Cl)cc1Cl', 'Percent inhibition (0.5 mM)', 94.68),
  ('CNC(=S)N/N=C/c1c(Cl)c2ccccc2oc1=O', 'Percent inhibition (0.5 mM)', 91.37);

Data provenance: paper PMC10590377
